// cross-source set; read-out = IC50; system = human PD-L1 (Homo sapiens (Human))

COc1nc(-c2cccc(-c3cccc(Nc4nc(C)nc5cccnc45)c3C)c2Cl)ccc1CN[C@H]1CC[C@@H]1O | < 10 nM

Query block: State IC50 on human PD-L1 (Homo sapiens (Human)). Entry: "COc1nc(OCc2cccc(-c3cccc(COc4ccc(CN5C[C@@H](O)C[C@H]5C(=O)O)c(OC)n4)c3Cl)c2Cl)ccc1CN1C[C@@H](O)C[C@H]1C(=O)O"
Result block: < 10 nM

Query block: State IC50 on human PD-L1 (Homo sapiens (Human)). Entry: "COc1nc(-c2cccc(-c3cccc(Nc4nccc5nccnc45)c3Cl)c2Cl)cnc1CN1CC(C)(C(=O)O)C1"
Result block: < 10 nM

Query block: State IC50 on human PD-L1 (Homo sapiens (Human)). Entry: "COc1nc(-c2cccc(-c3cccc(NC(=O)c4cn(C)c(=O)n(C)c4=O)c3C)c2Cl)ccc1CN(C)CCO"
Result block: < 10 nM

Query block: State IC50 on human PD-L1 (Homo sapiens (Human)). Entry: "COc1nc(-c2cccc(-c3cccc(Nc4nccc5nccnc45)c3Cl)c2Cl)cnc1CN1CC(C(=O)O)C1"
Result block: < 10 nM
